Taken from patent US20180327367A1.

Target: SpsB (Staphylococcus aureus signal peptidase) (Staphylococcus aureus)
Construct: This assay uses a suspension of Staphylococcus aureus cells as a source of SpsB instead of recombinant SpsB protein; endogenous in cells; host or cells: S. aureus, USA300 background, overexpressing SpsB (whole-cell suspension from frozen pellets)
Assay: cell-based
Type: biochemical
Conditions: SpsB IC50, whole-cell S. aureus (USA300 background, overexpressing SpsB) as SpsB source; fluorogenic peptide substrate, kinetic read 30 min
Procedure: A kinetic fluorogenic enzyme activity assay was used to assess inhibition of SpsB (Staphylococcus aureus signal peptidase) activity and IC50s were determined. This assay uses a suspension of Staphylococcus aureus cells as a source of SpsB instead of recombinant SpsB protein. Cell preparation: Luria broth (LB) was inoculated with S. aureus (USA300 background, overexpressing SpsB) and shaken at 37° C. until an OD600 nm of 1.5-2.0 was reached (˜4 hr). […]
Provide the recorded IC50 for the entries that follow.
Note: unit nM is implicit; provide only the numeric part.

Task item: Provide one value: measured IC50 of Cc1cc(-c2cnc(CC(C)C)cn2)ccc1C(=O)N[C@@H](CCN)C(=O)N(C)[C@@H]1C(=O)N[C@@H](C)C(=O)N[C@H](C(=O)NCC#N)Cc2ccc(OCCN)c(c2)-c2cc1ccc2OCCN
Reply: 0.9

Task item: Provide one value: measured IC50 of CCCCCCCCc1ccc(C(=O)N[C@@H](CC(N)=O)C(=O)N(C)[C@@H]2C(=O)N[C@@H](C)C(=O)N[C@H](C(=O)NCC#N)Cc3ccc(OCCN)c(c3)-c3cc2ccc3OCCN)c(C)c1
Reply: 0.74

Task item: Provide one value: measured IC50 of C[C@@H]1NC(=O)[C@@H](N(C)C(=O)[C@H](CCN)NC(=O)c2ccc(C#Cc3ccccc3)cc2F)c2ccc(OCCN)c(c2)-c2cc(ccc2OCCN)C[C@@H](C(=O)NCC#N)NC1=O
Reply: 0.85

Task item: Provide one value: measured IC50 of CCCCCCCc1cc(C)c(C(=O)N[C@@H](CCN)C(=O)N(C)[C@@H]2C(=O)N[C@@H](C)C(=O)N[C@H](C(=O)NCC#N)Cc3ccc(OCCN)c(c3)-c3cc2ccc3OCCN)c(Cl)c1
Reply: 0.85

Task item: Provide one value: measured IC50 of CCc1ccc(-c2ccc(C(=O)N[C@@H](CCN)C(=O)N(C)[C@@H]3C(=O)N[C@@H](C)C(=O)N[C@H](C(=O)NCC#N)Cc4ccc(OCCN)c(c4)-c4cc3ccc4OCCN)c(C)c2)cc1
Reply: 0.59

---

Provide the recorded MIC for the entries that follow.
Test system: Methicillin Resistant Staphylococcus aureus strain USA 300, NRS384
Test: Minimum inhibitory concentration, broth micro-dilution (CLSI), S. aureus
Assay type: cell-based
Conditions: Staphylococcus aureus, MRSA / NRS 384 / USA300, 22 h, MRSA USA 300 NRS384; 35° C., 22 hours; read-out: MIC (μg/mL) S. aureus
Note: unit µg/mL is implicit; provide only the numeric part.

Task item: Provide one value: measured MIC of Cc1nn(-c2ccc(CC(C)C)cc2)cc1C(=O)N[C@@H](CCN)C(=O)N(C)[C@@H]1C(=O)N[C@@H](C)C(=O)N[C@H](C(=O)NCC#N)Cc2ccc(OCCN)c(c2)-c2cc1ccc2OCCN
Reply: 0.094

Task item: Provide one value: measured MIC of Cc1nc(-c2ccc(C(C)(C)C)cc2)ncc1C(=O)N[C@@H](CCN)C(=O)N(C)[C@@H]1C(=O)N[C@@H](C)C(=O)N[C@H](C(=O)NCC#N)Cc2ccc(OCCN)c(c2)-c2cc1ccc2OCCN
Reply: 0.031

Task item: Provide one value: measured MIC of CCCCCCCOc1ccc(C(=O)N[C@@H](CCN)C(=O)N(C)[C@@H]2C(=O)N[C@@H](C)C(=O)N[C@H](C(=O)NCC#N)Cc3ccc(OCCN)c(c3)-c3cc2ccc3OCCN)c(C(F)(F)F)c1
Reply: 0.031

Task item: Provide one value: measured MIC of CCCCCCCCc1ccc(C(=O)N[C@@H](CCN)C(=O)N(C)[C@@H]2C(=O)N[C@@H](C)C(=O)N[C@H](C(=O)NCC#N)Cc3ccc(OCCN)c(c3)-c3cc2ccc3OCCN)c(Br)c1
Reply: 0.063

Task item: Provide one value: measured MIC of CCCCCCCCCCCCCC(=O)N[C@@H](CCN)C(=O)N(C)[C@@H]1C(=O)N[C@@H](C)C(=O)N[C@H](C(=O)NCC#N)Cc2ccc(OCCN)c(c2)-c2cc1ccc2OCCN
Reply: 0.031

---

Target: SpsB (Staphylococcus aureus signal peptidase) (Staphylococcus aureus)
Construct: This assay uses a suspension of Staphylococcus aureus cells as a source of SpsB instead of recombinant SpsB protein; endogenous in cells; host or cells: S. aureus, USA300 background, overexpressing SpsB (whole-cell suspension from frozen pellets)
Experiment: cell-based
Type: biochemical
Conditions: SpsB IC50, whole-cell S. aureus (USA300 background, overexpressing SpsB) as SpsB source; fluorogenic peptide substrate, kinetic read 30 min
Provide the recorded IC50 for the entries that follow.
Note: unit nM is implicit; provide only the numeric part.

Task item: Provide one value: measured IC50 of CCCCCCCCCCNCCC(=O)N[C@@H](CCCCN)C(=O)N(C)[C@@H]1C(=O)N[C@@H](C)C(=O)N[C@H](C(=O)NCC#N)Cc2ccc(OCCN)c(c2)-c2cc1ccc2OCCN [Compound 101]
Reply: 0.72

Task item: Provide one value: measured IC50 of CCCCCCCOc1ccc(C(=O)N[C@@H](CCN)C(=O)N(C)[C@@H]2C(=O)N[C@@H](C)C(=O)N[C@H](C(=O)NCC#N)Cc3ccc(OCCN)c(c3)-c3cc2ccc3OCCN)c(C)c1 [Compound 268]
Reply: 0.86

Task item: Provide one value: measured IC50 of Cc1cc(C#CC(C)C)ccc1C(=O)N[C@@H](CCN)C(=O)N(C)[C@@H]1C(=O)N[C@@H](C)C(=O)N[C@H](C(=O)NCC#N)Cc2ccc(OCCN)c(c2)-c2cc1ccc2OCCN [Compound 309]
Reply: 1

Task item: Provide one value: measured IC50 of Cc1cc(-c2ccc(C(F)(F)F)cc2)ccc1C(=O)N[C@@H](CCN)C(=O)N(C)[C@@H]1C(=O)N[C@@H](C)C(=O)N[C@H](C(=O)NCC#N)Cc2ccc(OCCN)c(c2)-c2cc1ccc2OCCN [Compound 143]
Reply: 0.57

Task item: Provide one value: measured IC50 of CCCCCCCCCCC(=O)N[C@@H](CCN)C(=O)N(C)[C@@H]1C(=O)N[C@@H](C)C(=O)N[C@H](C(=O)NCC#N)Cc2ccc(OCCN)c(c2)-c2cc1ccc2OCCN [Compound 104]
Reply: 0.5

---

Molecular target: SpsB (Staphylococcus aureus signal peptidase) (Staphylococcus aureus, UniProt P0A070)
Construct: This assay uses a suspension of Staphylococcus aureus cells as a source of SpsB instead of recombinant SpsB protein; endogenous in cells; host or cells: S. aureus, USA300 background, overexpressing SpsB (whole-cell suspension from frozen pellets)
Sequence (P0A070 whole entry): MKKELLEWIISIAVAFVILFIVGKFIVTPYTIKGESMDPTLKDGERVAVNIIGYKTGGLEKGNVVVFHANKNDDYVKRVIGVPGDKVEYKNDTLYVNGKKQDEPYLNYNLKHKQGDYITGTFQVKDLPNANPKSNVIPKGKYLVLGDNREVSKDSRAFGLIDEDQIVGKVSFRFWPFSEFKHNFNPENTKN
Test: cell-based
Type: biochemical
Details: SpsB IC50, whole-cell S. aureus (USA300 background, overexpressing SpsB) as SpsB source; fluorogenic peptide substrate, kinetic read 30 min
IC50 less than 900 pM is fulfilled; IC50 greater than or equal to 900 pM is not fulfilled.

Task item: Take the compound Cc1cc(C2CC2)ccc1C(=O)N[C@@H](CCN)C(=O)N(C)[C@@H]1C(=O)N[C@@H](C)C(=O)N[C@H](C(=O)NCC#N)Cc2ccc(OCCN)c(c2)-c2cc1ccc2OCCN [Compound 216] and say whether its IC50 is less than 900 pM.
Reply: not fulfilled

Task item: Take the compound CCCCc1ccc(Oc2ccc(C(=O)N[C@@H](CCN)C(=O)N(C)[C@@H]3C(=O)N[C@@H](C)C(=O)N[C@H](C(=O)NCC#N)Cc4ccc(OCCN)c(c4)-c4cc3ccc4OCCN)c(C)c2)cc1 [Compound 303] and say whether its IC50 is less than 900 pM.
Reply: not fulfilled

Task item: Take the compound CCCCCCCCCC(=O)N[C@@H](C(=O)N[C@@H](CCN)C(=O)N(C)[C@@H]1C(=O)N[C@@H](C)C(=O)N[C@H](C(=O)NCC#N)Cc2ccc(OCCN)c(c2)-c2cc1ccc2OCCN)C(C)O (single isomer, unassigned) [Compound 357-P2] and say whether its IC50 is less than 900 pM.
Reply: not fulfilled

Task item: Take the compound Cc1cc(C2CCCCCC2)ccc1C(=O)N[C@@H](CCN)C(=O)N(C)[C@@H]1C(=O)N[C@@H](C)C(=O)N[C@H](C(=O)NCC#N)Cc2ccc(OCCN)c(c2)-c2cc1ccc2OCCN [Compound 436] and say whether its IC50 is less than 900 pM.
Reply: fulfilled

---

Biological target: SpsB (Staphylococcus aureus signal peptidase) (Staphylococcus aureus)
Construct: This assay uses a suspension of Staphylococcus aureus cells as a source of SpsB instead of recombinant SpsB protein; endogenous in cells; host or cells: S. aureus, USA300 background, overexpressing SpsB (whole-cell suspension from frozen pellets)
Experiment: cell-based
Type: biochemical
Conditions: SpsB IC50, whole-cell S. aureus (USA300 background, overexpressing SpsB) as SpsB source; fluorogenic peptide substrate, kinetic read 30 min
Provide the recorded pIC50 for the entries that follow.
Please express pIC50 as -log10 of the molar concentration.

Task item: Give SpsB (Staphylococcus aureus signal peptidase) (Staphylococcus aureus) pIC50 for the following compound: C[C@@H]1NC(=O)[C@@H](N(C)C(=O)[C@H](CCCCN)NC(=O)c2ccc(Oc3ccc(Cl)cc3)cc2)c2ccc(OCCN)c(c2)-c2cc(ccc2OCCN)C[C@@H](C(=O)NCC#N)NC1=O [Compound 116]
Reply: 8.89

Task item: Give SpsB (Staphylococcus aureus signal peptidase) (Staphylococcus aureus) pIC50 for the following compound: C[C@@H]1NC(=O)[C@@H](N(C)C(=O)[C@H](CCCCN)NC(=O)c2ccc(-c3ccc(Cl)cc3)cc2)c2ccc(OCCN)c(c2)-c2cc(ccc2O)C[C@@H](C(=O)NCC#N)NC1=O [Compound 318]
Reply: 9.10

Task item: Give SpsB (Staphylococcus aureus signal peptidase) (Staphylococcus aureus) pIC50 for the following compound: Cc1cc(-c2ccc(CC(C)C)cc2)ccc1C(=O)N[C@@H](CCN)C(=O)N(C)[C@@H]1C(=O)N[C@@H](C)C(=O)N[C@H](C(=O)NCC#N)Cc2ccc(OCCN)c(c2)-c2cc1ccc2OCCN [Compound 146]
Reply: 9.05

Task item: Give SpsB (Staphylococcus aureus signal peptidase) (Staphylococcus aureus) pIC50 for the following compound: CCCCCCCC(F)(F)c1ccc(C(=O)N[C@@H](CCN)C(=O)N(C)[C@@H]2C(=O)N[C@@H](C)C(=O)N[C@H](C(=O)NCC#N)Cc3ccc(OCCN)c(c3)-c3cc2ccc3OCCN)c(Cl)c1 [Compound 412]
Reply: 9.22

Task item: Give SpsB (Staphylococcus aureus signal peptidase) (Staphylococcus aureus) pIC50 for the following compound: CCCCc1ccc(-c2ccc(C(=O)N[C@@H](CO)C(=O)N(C)[C@@H]3C(=O)N[C@@H](C)C(=O)N[C@H](C(=O)NCC#N)Cc4ccc(OCCN)c(c4)-c4cc3ccc4OCCN)cc2)cc1 [Compound 249]
Reply: 8.92

Task item: Give SpsB (Staphylococcus aureus signal peptidase) (Staphylococcus aureus) pIC50 for the following compound: CCCCc1ccc(-c2ccc(C(=O)N[C@@H](CN)C(=O)N(C)[C@@H]3C(=O)N[C@@H](C)C(=O)N[C@H](C(=O)N[C@@H](C)C#N)Cc4ccc(OCCN)c(c4)-c4cc3ccc4OCCN)cc2)cc1 [Compound 340]
Reply: 9.16

Task item: Give SpsB (Staphylococcus aureus signal peptidase) (Staphylococcus aureus) pIC50 for the following compound: Cc1nc(-c2ccc(C(C)(C)C)cc2)ncc1C(=O)N[C@@H](CCN)C(=O)N(C)[C@@H]1C(=O)N[C@@H](C)C(=O)N[C@H](C(=O)NCC#N)Cc2ccc(OCCN)c(c2)-c2cc1ccc2OCCN [Compound 163]
Reply: 9.15

Task item: Give SpsB (Staphylococcus aureus signal peptidase) (Staphylococcus aureus) pIC50 for the following compound: CCCCCc1ccc(C(=O)N[C@@H](CCN)C(=O)N(C)[C@@H]2C(=O)N[C@@H](C)C(=O)N[C@H](C(=O)NCC#N)Cc3ccc(OCCN)c(c3)-c3cc2ccc3OCCN)c(C2CC2)c1 [Compound 229]
Reply: 9.04

Task item: Give SpsB (Staphylococcus aureus signal peptidase) (Staphylococcus aureus) pIC50 for the following compound: C#CCC(C)(C)COc1ccc(C(=O)N[C@@H](CCN)C(=O)N(C)[C@@H]2C(=O)N[C@@H](C)C(=O)N[C@H](C(=O)NCC#N)Cc3ccc(OCCN)c(c3)-c3cc2ccc3OCCN)c(C)c1 [Compound 284]
Reply: 9.09
